details: in isopropanol, 288.15 K
propertyName: solubility (mole fraction)
Answers are plain numbers.

Exercise: Please give the measured solubility (mole fraction) for this molecule: CCOC(=O)C1=C(C)NC(C)=C(C(=O)OCC)C1
Key: 0.0012

* * *

details: in ethyl formate, 298.15 K
propertyName: solubility (mole fraction)
Numbers only.

Exercise: Record request: solubility (mole fraction) value, item CCOC(=O)C1=C(C)NC(C)=C(C(=O)OCC)C1
Key: 0.00343

* * *

settings: in 2-butanone, 278.15 K
propertyName: solubility (mole fraction)

Exercise: Endpoint output: solubility (mole fraction) of CCOC(=O)C1=C(C)NC(C)=C(C(=O)OCC)C1 . Value?
Key: 0.00274

* * *

conditions: in methyl acetate, 288.15 K
propertyName: solubility (mole fraction)
Numbers only.

Exercise: Recorded solubility (mole fraction) of CCOC(=O)C1=C(C)NC(C)=C(C(=O)OCC)C1 , please.
Key: 0.00251

* * *

conditions: in acetonitrile, 272.15 K
propertyName: solubility (mole fraction)
Give bare numbers.

Exercise: Quick check: solubility (mole fraction) of CCOC(=O)C1=C(C)NC(C)=C(C(=O)OCC)C1 ?
Key: 0.000235

* * *

conditions: in isopentanol, 298.15 K
propertyName: solubility (mole fraction)
Numbers only.

Exercise: Recorded solubility (mole fraction) for CCOC(=O)C1=C(C)NC(C)=C(C(=O)OCC)C1 , please?
Key: 0.00341

* * *

conditions: in toluene, 313.15 K
propertyName: solubility (mole fraction)
Give bare numbers.

Exercise: Dear colleague, I am looking for the recorded solubility (mole fraction) of the following compound: CCOC(=O)C1=C(C)NC(C)=C(C(=O)OCC)C1
Key: 0.00198

* * *

settings: in ethyl acetate, 298.15 K
propertyName: solubility (mole fraction)

Exercise: What does the record list as solubility (mole fraction) for CCOC(=O)C1=C(C)NC(C)=C(C(=O)OCC)C1 ?
Key: 0.00588

* * *

settings: in 2-pentanone, 298.15 K
propertyName: solubility (mole fraction)
Numbers only.

Exercise: Which solubility (mole fraction) is listed for CCOC(=O)C1=C(C)NC(C)=C(C(=O)OCC)C1 ?
Key: 0.00881

* * *

conditions: in acetonitrile, 293.15 K
propertyName: solubility (mole fraction)
Give bare numbers.

Exercise: Fill blank: measured solubility (mole fraction) of the compound CCOC(=O)C1=C(C)NC(C)=C(C(=O)OCC)C1 is ____.
Key: 0.000931

* * *

conditions: in isopropanol, 308.05 K
propertyName: solubility (mole fraction)
Give bare numbers.

Exercise: Return reported solubility (mole fraction); argument: CCOC(=O)C1=C(C)NC(C)=C(C(=O)OCC)C1
Key: 0.00344

* * *

settings: in acetone, 298.15 K
propertyName: solubility (mole fraction)
Give bare numbers.

Exercise: Please look up its solubility (mole fraction): CCOC(=O)C1=C(C)NC(C)=C(C(=O)OCC)C1
Key: 0.0054

* * *

conditions: in ethyl acetate, 288.15 K
propertyName: solubility (mole fraction)
One number for each entry.

Exercise: # query: solubility (mole fraction) of entry CCOC(=O)C1=C(C)NC(C)=C(C(=O)OCC)C1
Key: 0.00345

* * *

settings: in methyl acetate, 283.15 K
propertyName: solubility (mole fraction)
One number for each entry.

Exercise: Look at this compound and give its reported solubility (mole fraction). CCOC(=O)C1=C(C)NC(C)=C(C(=O)OCC)C1
Key: 0.00192
